Assayed Target: SARS-CoV-2 3CL protease (Severe acute respiratory syndrome coronavirus 2, UniProt P0DTD1)
Assay type: biochemical
Set-up: unit not given here
Condition Parameters: Conc 15 µM; mean response (inhibition) of dose-response curve
Quantity Name: Avg
Just the number, please, no unit attached.

Lab note: need Avg with SARS-CoV-2 3CL protease (Severe acute respiratory syndrome coronavirus 2, UniProt P0DTD1) for entry `Cc1cc(C(=O)CCl)c(C)n1-c1nccs1` , please look it up.
80.9

Enter reported Avg observed with SARS-CoV-2 3CL protease (Severe acute respiratory syndrome coronavirus 2, UniProt P0DTD1) for `Cc1ccc(CNC(=O)n2ccnc2)cc1`
37.9

Can you look up Avg on SARS-CoV-2 3CL protease (Severe acute respiratory syndrome coronavirus 2, UniProt P0DTD1) for `Cc1ccccc1CN1CCCN(C(=O)CCl)CC1` ?
31.4

Recall the recorded Avg for `CCN(c1ccc(C(=O)CCl)cc1)S(C)(=O)=O` with SARS-CoV-2 3CL protease (Severe acute respiratory syndrome coronavirus 2, UniProt P0DTD1) and state it.
25.8

Query for SARS-CoV-2 3CL protease (Severe acute respiratory syndrome coronavirus 2, UniProt P0DTD1): what Avg does the record show for `CN(C)C(=O)c1csc(C(=O)CCl)c1` ?
22.7

Lab note: need Avg with SARS-CoV-2 3CL protease (Severe acute respiratory syndrome coronavirus 2, UniProt P0DTD1) for entry `O=C(CCl)c1ccc(F)c(C(=O)CCl)c1` , please look it up.
11.1

SARS-CoV-2 3CL protease (Severe acute respiratory syndrome coronavirus 2, UniProt P0DTD1) / Avg / `O=C(CCl)N1CCc2[nH]c3ccccc3c2C1` : value?
70.8

# get_value(readout= Avg, system= SARS-CoV-2 3CL protease (Severe acute respiratory syndrome coronavirus 2, UniProt P0DTD1)) for `NC(=O)c1csc(C(=O)CCl)c1`
29.5

For SARS-CoV-2 3CL protease (Severe acute respiratory syndrome coronavirus 2, UniProt P0DTD1), provide Avg of `N#Cc1ccc(S)nc1` please.
29.5

Tell me reported Avg for `O=C(CCl)COc1ccc(Cl)cc1` , tested with SARS-CoV-2 3CL protease (Severe acute respiratory syndrome coronavirus 2, UniProt P0DTD1).
63.9

Quick check: Avg on SARS-CoV-2 3CL protease (Severe acute respiratory syndrome coronavirus 2, UniProt P0DTD1), item `Cc1cnc(=S)[nH]c1` ?
59.8

###

Assayed Target: SARS-CoV-2 3CL protease (Severe acute respiratory syndrome coronavirus 2)
Assay type: biochemical
Set-up: unit not given here
Condition Parameters: Conc 20 µM; average response of dose-response curve
Quantity Name: Avg
Give the value as a plain number.

Entry `NS(=O)(=O)c1ccc(S)nc1` : reported Avg = ?
38.6

Quick one: Avg for `CN1C(=O)CCc2cc(C(=O)CCl)ccc21` ?
13.7

State the recorded Avg for this entry: `O=C(CCl)N1CCN(Cc2cccs2)CC1`
27.4

Given the entry `CC1(C)C(=O)Nc2ccc(C(=O)CCl)cc21` , report its measured Avg.
41.3

// query Avg value for entry `Nc1cccnc1S`
66.1

So what's the measured Avg for this one? `Nc1nccnc1S`
32.6

###

Assayed Target: SARS-CoV-2 3CL protease (Severe acute respiratory syndrome coronavirus 2)
Type: biochemical
Design: unit not given here
Condition Parameters: Conc 10 µM; mean response (inhibition) of dose-response curve
Binning of Avg into classes: band 1 = under 20, band 2 = from 20 up to 40, band 3 = 40 and over

Categorize the following entry: `Cc1cc(C(=O)CCl)c(C)n1-c1ncn[nH]1`
band 2

Which bin, given its Avg, does `Cc1cc(C(=O)CCl)c(C)n1-c1nccs1` occupy?
band 3

Lab note: which band did `O=C(CCl)COc1ccc(Cl)cc1` land in?
band 3

Which class holds `O=C(CCl)N1CCN(Cc2ccsc2)CC1` ?
band 1

Pick a category. Item: CC1C(=O)Nc2ccc(C(=O)CCl)cc21 (stereo not drawn)
band 1

Place this compound in its band: `C=CS(=O)(=O)c1nc2ccccc2s1`
band 3

Input `CN(c1ccc(C(=O)CCl)cc1)S(C)(=O)=O` ; output its category
band 3

Band for the recorded Avg of `NC(=O)c1csc(C(=O)CCl)c1` ?
band 1

# bin label for `N#Cc1ccc(S)nc1`
band 1

Classify this compound: `CCN(c1ccc(C(=O)CCl)cc1)S(C)(=O)=O`
band 2

Quick check: band for `Cc1cnc(=S)[nH]c1`
band 3

Hi there! Could you help me figure out the category for `O=C(CCl)N1CCc2[nH]c3ccccc3c2C1` please?
band 3

Which class holds `Cc1ccc(CNC(=O)n2ccnc2)cc1` ?
band 2

Assign a bin to `N#Cc1ccnc(S)c1`
band 1

Assign a bin to `Cc1ccccc1CN1CCCN(C(=O)CCl)CC1`
band 1

###

Assayed Target: SARS-CoV-2 3CL protease (Severe acute respiratory syndrome coronavirus 2, UniProt P0DTD1)
Assay type: biochemical
Design: unit not given here
Condition Parameters: Conc 100 µM; average response of dose-response curve
Quantity Name: Avg
Reply with the value as a number alone.

Could you tell me which Avg is on file for `O=C(NCCC1=CCOCC1)c1cccnc1S` ?
98.6

What measured Avg goes with `OCCc1cnc(S)nc1` ?
103

Entry `Nc1nccnc1S` : reported Avg = ?
91.8

Endpoint output: Avg of `Cc1cnccc1CCNC(=O)c1cccnc1S` . Value?
101.4

Name the recorded Avg for `O=C(CCl)N1CCN(c2ccccc2[N+](=O)[O-])CC1` .
90

Item under review: `Nc1cccnc1S` . Reported Avg?
106.8

For the compound shown here, `O=C(CCl)c1csc(N2CCCCC2)n1` , give the reported Avg.
102

Fill in the blank: the reported Avg of `CN1Cc2cc(C(=O)CCl)ccc2NC1=O` is ____.
95.1

Would you kindly share the measured Avg for `NS(=O)(=O)c1ccc(S)nc1` ?
110.1

Consider the compound shown here: `CC1(C)C(=O)Nc2ccc(C(=O)CCl)cc21` What is its recorded Avg?
96.5

Need Avg, item `O=C(CCl)c1ccc(N2CCCC2=O)cc1`
86.9

Given the compound `CN1C(=O)CCc2cc(C(=O)CCl)ccc21` , what is its reported Avg?
86.8

Entry `O=C(c1ccc(S)nc1)N1CCCC1` has what Avg?
108.6

###

What Avg was measured for each of the following?
Assayed Target: SARS-CoV-2 3CL protease (Severe acute respiratory syndrome coronavirus 2, UniProt P0DTD1)
Format: biochemical
Design: unit not given here
Condition Parameters: Conc 20 µM
Number only, no unit.

I'd like to know its Avg. The molecule in question is `COC1(CNC(=O)c2cccnc2S)CCOCC1`
13.4

Find the recorded Avg belonging to O=C(NCC1(O)CCc2ccccc21)c1cccnc1S (stereo not shown) and report it.
101.3

Quick one: Avg of `COC(C)(C)CNC(=O)c1cccnc1S` ?
67.5

Recorded Avg of `Cc1nc(CCNC(=O)c2cccnc2S)sc1C` , please.
26.8

###

Assayed Target: SARS-CoV-2 3CL protease (Severe acute respiratory syndrome coronavirus 2)
Assay type: biochemical
Condition Parameters: log of IC50 (µM), dose-response curve fit, Figure S1 and S2
Quantity Name: LogIC50
# respond with the number and nothing more

Write down the reported LogIC50 of COC1(CNC(=O)c2cccnc2S)CCOCC1 [Z1483040147] , test system: SARS-CoV-2 3CL protease (Severe acute respiratory syndrome coronavirus 2).
1.599

Can you look up LogIC50 on SARS-CoV-2 3CL protease (Severe acute respiratory syndrome coronavirus 2) for COC(C)(C)CNC(=O)c1cccnc1S [Z1274680193] ?
1.153

Kindly state the measured LogIC50 obtained for O=C(NCc1ccc(F)c(CO)c1)c1cccnc1S [Z1501229042] with SARS-CoV-2 3CL protease (Severe acute respiratory syndrome coronavirus 2).
1.299

Record O=C(CCl)NC(=O)OCc1ccccc1 [Z108566700] : what is its LogIC50 with SARS-CoV-2 3CL protease (Severe acute respiratory syndrome coronavirus 2)?
1.279

Hi! What's the reported LogIC50 for Cn1cc(CNC(=O)c2cccnc2S)c(C(F)(F)F)n1 [Z1488388701] on SARS-CoV-2 3CL protease (Severe acute respiratory syndrome coronavirus 2)?
1.41

###

Task for the reader: assign each of the following molecules its reported Avg.
Assayed Target: SARS-CoV-2 3CL protease (Severe acute respiratory syndrome coronavirus 2, UniProt P0DTD1)
Assay type: biochemical
Design: unit not given here
Condition Parameters: Conc 100 µM
Write the number on its own, no unit after it.

Quick check: Avg of `O=C(NCc1ccc(F)c(CO)c1)c1cccnc1S` ?
101.9

Item CCC(=O)N1CCC(NC(=O)c2cccnc2S)C1 (stereo not shown) has what recorded Avg?
102.1

Returns the measured Avg for the input molecule. Input: `O=C(CCl)NC(=O)OCc1ccccc1`
100.3

// lookup Avg for O=C(NCCC(O)c1ccccc1)c1cccnc1S (stereo not shown)
101.3
